METHOD_NOTES: Biodistribution in PC-3 tumor-bearing NSG mice (Example 2)
Format: in vivo
ASSAY_SETUP: male, NSG (NOD.Cg-Prkdc^scid Il2rg^tm1Wjl/SzJ), mouse, heart, iv, total radioactivity, 60 MIN p.i.; read-out: Biodistribution HEART, Mean
ENDPOINT_NAME: tissue uptake at 1 h (%ID/g)
Answers are plain numbers, in %ID/g.

Request: Supply measured tissue uptake at 1 h of CC(C)C[C@@H](CN1CCC[C@H]1C(N)=O)NC(=O)[C@H](Cc1c[nH]cn1)NC(=O)CNC(=O)[C@@H](NC(=O)[C@H](C)NC(=O)[C@H](Cc1c[nH]c2ccccc12)NC(=O)[C@H](CCC(N)=O)NC(=O)[C@@H](Cc1ccccc1)NC(=O)CN1CCC(NC(=O)CN2CCN(CC(=O)O)CCN(CC(=O)O)CCN(CC(=O)O)CC2)CC1)C(C)C [^68Ga-ProBOMB2, metal not drawn] in your reply.
Result: 0.18
